test system: L1210 leukemia ip in BDF1 mice, survival T/C; test: NCI In Vivo Anticancer Drug Screen. Data for tumor model L1210 Leukemia (intraperitoneal) in B6D2F1 (BDF1) mice; conditions: endpoint: mean survival time; dose: 6.25 mg/kg/injection; schedule: Q01DX009 (ip); vehicle: Klucel (hydroxypropylcellulose) (HPC); higher = longer survival
Toxic doses and inconclusive results are not listed.
Measured quantity: T/C

The examples below pair each entry with its known result.
# Chemical smiles, Study target, Measured quantity, Value observed
records = [
    ("Clc1nc2ccccc2nc1CI", "L1210 leukemia ip in BDF1 mice, survival T/C", "T/C", "94 % of control"),
    ("Cc1c(C)c(N)c(C)c(C)c1N", "L1210 leukemia ip in BDF1 mice, survival T/C", "T/C", "94 % of control"),
    ("CC(=O)Oc1ccc(N2C(=O)C=CC2=O)cc1", "L1210 leukemia ip in BDF1 mice, survival T/C", "T/C", "96 % of control"),
]

[ask] Please look up its T/C: CC(=[N-])CC(C)=O.CC(=[N-])CC(C)=O.[Ni+2]
[reply] 97 % of control

[ask] Please look up its T/C: CNC(=S)N/N=C(\C)CSC/C(C)=N/NC(=S)NC
[reply] 92 % of control

[ask] Please look up its T/C: C[C@@H]1C[C@H]2[C@@H]3CCC4=CC(=O)C=C[C@]4(C)[C@@]3(F)[C@@H](O)C[C@]2(C)[C@@]1(O)C(=O)CO
[reply] 95 % of control

Entry source: PubChem BioAssay AID248
